Provide the reported clearance of each item.
Test: Plasma clearance after intravenous administration of 0.4 mg/kg of dose in rats was determined
Assay type: ADME, organism-based
Parameters: dose 0.4 mg/kg, route intravenous
Conditions: rat
Answers are plain numbers, in mL/min/kg.

>>> quantitative_result("CN(C)Cc1ccc(C(=O)Nc2ccc(Cl)cc2C(=O)Nc2ccc(Cl)cn2)cc1")
20.6

Query compound follows.
Param item = N=C1OCCN1Cc1ccc(C(=O)Nc2ccc(Cl)cc2C(=O)Nc2ccc(Cl)cn2)cc1 ; retrieve measured clearance.
18.3

* * *

Target: Coagulation factor X (Homo sapiens)
Sequence (P00742 41-179 limits assumed): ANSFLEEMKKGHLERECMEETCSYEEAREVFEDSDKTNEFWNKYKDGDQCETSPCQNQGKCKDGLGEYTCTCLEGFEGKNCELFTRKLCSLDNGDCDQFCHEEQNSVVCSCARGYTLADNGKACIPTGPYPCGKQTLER
Sequence (P00742 235-488 limits assumed): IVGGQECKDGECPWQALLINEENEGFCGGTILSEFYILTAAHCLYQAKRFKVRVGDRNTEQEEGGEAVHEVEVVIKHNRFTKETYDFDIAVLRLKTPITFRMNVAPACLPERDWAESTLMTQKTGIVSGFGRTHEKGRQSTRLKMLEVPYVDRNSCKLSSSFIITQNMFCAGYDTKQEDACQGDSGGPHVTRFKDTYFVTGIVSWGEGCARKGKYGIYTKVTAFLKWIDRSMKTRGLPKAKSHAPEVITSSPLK
Assay: In vitro inhibitory activity against coagulation factor X.
pIC50: −log10 of the molar value.
# if value of pIC50 reaches 8, tag true (1); if it stays below, tag false (0)

>>> class_assignment("O=C(Nc1ccc(Cl)cc1C(=O)Nc1ccc(Cl)cn1)c1ccc(CN2CCC(O)CC2)cc1")
"false (0)"

Please indicate if the recorded pIC50 for NNCc1ccc(C(=O)Nc2ccc(Cl)cc2C(=O)Nc2ccc(Cl)cn2)cc1 meets or exceeds 8.
false (0)

hey, is pIC50 for this one >= 8? CNC1=NCCN1Cc1ccc(C(=O)Nc2ccc(Cl)cc2C(=O)Nc2ccc(Cl)cn2)cc1
true (1)

State whether the measured pIC50 reaches 8, counting equality as reaching it, for C[N+]1(Cc2ccc(C(=O)Nc3ccc(Cl)cc3C(=O)Nc3ccc(Cl)cn3)cc2)CCCC1
true (1)

Is reported pIC50 greater than or equal to 8 here: O=C(Nc1ccc(Cl)cc1C(=O)Nc1ccc(Cl)cn1)c1ccc(CN2CCN=C2S)cc1
false (0)

Textbook exercise: given the entry CC(=N)N(C)CCN(C)Cc1ccc(C(=O)Nc2ccc(Cl)cc2C(=O)Nc2ccc(Cl)cn2)cc1 , state whether its pIC50 is greater than or equal to 8.
true (1)

Would you say C/N=C(/NC)N(C)Cc1ccc(C(=O)Nc2ccc(Cl)cc2C(=O)Nc2ccc(Cl)cn2)cc1 shows pIC50 at minimum 8?
true (1)

hey, is pIC50 for this one >= 8? CN(CCN(C)C(=N)N)Cc1ccc(C(=O)Nc2ccc(Cl)cc2C(=O)Nc2ccc(Cl)cn2)cc1
true (1)

In plain terms: is recorded pIC50 at least 8 for NC(=O)C1CCN(Cc2ccc(C(=O)Nc3ccc(Cl)cc3C(=O)Nc3ccc(Cl)cn3)cc2)CC1 ?
false (0)

Hi, just wondering whether CN(Cc1ccc(C(=O)Nc2ccc(Cl)cc2C(=O)Nc2ccc(Cl)cn2)cc1)C1=NCCO1 shows pIC50 of 8 or higher.
true (1)

Does the molecule CN(C)C1=NCCN1Cc1ccc(C(=O)Nc2ccc(Cl)cc2C(=O)Nc2ccc(Cl)cn2)cc1 have recorded pIC50 that is 8 or more?
true (1)

Evaluate NC1=NCCCN1Cc1ccc(C(=O)Nc2ccc(Cl)cc2C(=O)Nc2ccc(Cl)cn2)cc1 : pIC50 at minimum 8?
true (1)
